Biological target: HCMV polymerase (Human cytomegalovirus, UniProt P08546)
Construct: made in house; host or cells: recombinant baculovirus-infected SF-9 cells
Sequence (P08546 whole entry): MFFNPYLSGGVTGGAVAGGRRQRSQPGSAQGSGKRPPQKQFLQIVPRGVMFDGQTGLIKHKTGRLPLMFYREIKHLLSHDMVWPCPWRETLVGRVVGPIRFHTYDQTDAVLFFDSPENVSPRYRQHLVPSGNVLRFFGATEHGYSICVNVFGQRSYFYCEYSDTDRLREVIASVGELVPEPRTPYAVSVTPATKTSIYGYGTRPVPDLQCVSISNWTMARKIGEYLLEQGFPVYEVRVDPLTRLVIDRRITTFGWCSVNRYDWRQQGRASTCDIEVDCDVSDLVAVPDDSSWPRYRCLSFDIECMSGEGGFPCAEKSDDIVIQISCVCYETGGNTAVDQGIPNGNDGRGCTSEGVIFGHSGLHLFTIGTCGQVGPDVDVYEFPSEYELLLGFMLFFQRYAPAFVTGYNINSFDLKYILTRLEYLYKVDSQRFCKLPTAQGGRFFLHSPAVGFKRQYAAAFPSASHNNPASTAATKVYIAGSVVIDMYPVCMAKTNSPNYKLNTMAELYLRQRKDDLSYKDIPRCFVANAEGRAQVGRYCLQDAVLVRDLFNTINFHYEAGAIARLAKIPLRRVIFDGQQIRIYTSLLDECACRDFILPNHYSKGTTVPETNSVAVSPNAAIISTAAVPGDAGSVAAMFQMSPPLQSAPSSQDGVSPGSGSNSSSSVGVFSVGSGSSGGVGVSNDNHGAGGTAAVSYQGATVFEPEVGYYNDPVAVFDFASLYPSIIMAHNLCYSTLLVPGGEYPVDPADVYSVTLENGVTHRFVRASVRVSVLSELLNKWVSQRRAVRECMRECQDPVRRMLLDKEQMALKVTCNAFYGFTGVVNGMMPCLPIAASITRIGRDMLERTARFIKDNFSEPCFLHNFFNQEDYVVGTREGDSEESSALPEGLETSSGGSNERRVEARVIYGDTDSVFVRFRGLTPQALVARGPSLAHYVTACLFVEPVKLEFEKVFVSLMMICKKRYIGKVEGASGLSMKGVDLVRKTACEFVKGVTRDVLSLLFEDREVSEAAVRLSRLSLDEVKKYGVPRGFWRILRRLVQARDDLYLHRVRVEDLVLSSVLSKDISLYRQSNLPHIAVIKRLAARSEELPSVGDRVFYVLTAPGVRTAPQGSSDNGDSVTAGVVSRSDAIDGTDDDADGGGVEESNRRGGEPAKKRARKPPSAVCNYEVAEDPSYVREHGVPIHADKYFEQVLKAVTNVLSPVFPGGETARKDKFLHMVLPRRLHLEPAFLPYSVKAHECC
Assay: HCMV polymerase scintillation proximity assay
Format: biochemical
Conditions: read-out: Polymerase IC50 HCMV
measured property: pIC50
# pIC50 = -log10(concentration in molar units)

# count of solved cases: 5
molecule: CN(Cc1cc2c(=O)c(C(=O)NCc3ccc(Cl)cc3)cn(C)c2s1)C[C@@H](O)c1ccc(CO)cc1 (single isomer, unassigned)
pIC50: 6.89

molecule: CN(Cc1cc2c(=O)c(C(=O)NCc3ccc(Cl)cc3)cn(C)c2s1)C[C@@H](O)c1ccc(N(C)C)cc1 (single isomer, unassigned)
pIC50: 6.68

molecule: CN(Cc1cc2c(=O)c(C(=O)NCc3ccc(Cl)cc3)cn(C)c2s1)C[C@@H](O)c1ccc(O)cc1
pIC50: 7.30

molecule: CN(Cc1cc2c(=O)c(C(=O)NCc3ccc(Cl)cc3)cn(C)c2s1)C[C@@H](O)c1ccc([N+](=O)[O-])cc1 (single isomer, unassigned)
pIC50: 6.21

molecule: CN(Cc1cc2c(=O)c(C(=O)NCc3ccc(Cl)cc3)cn(CC(O)CO)c2s1)C[C@@H](O)c1ccccc1 (stereo partly drawn)
pIC50: 5.75

Now for the molecule whose pIC50 we want.
GET /values?readout=pIC50&item= CN(Cc1cc2c(=O)c(C(=O)NCc3ccc(Cl)cc3)cn(C)c2s1)C[C@@H](O)c1cccc(C#N)c1 (single isomer, unassigned) 7.00
